Provenance of the data: patent US8791131B2

target: mTOR (Homo sapiens (Human)); experiment: biochemical
Checkbox rule: Ki lower than 2 nM = label 1; Ki not lower than 2 nM = label 0.

Qu. Does the reported Ki of `CNC(=O)N1CCC(n2c(=O)n(C)c3cnc4ccc(-c5ccc(C)nc5)nc4c32)CC1` stay below 2 nM?
Ans. label 1

Qu. Does the reported Ki of `COc1ncc(-c2ccc3ncc4c(c3n2)n(C2CCN(CC(N)=O)CC2)c(=O)n4C)cn1` stay below 2 nM?
Ans. label 0

Qu. Does the reported Ki of `Cn1c(=O)n(C2CCN(C(=O)OCc3ccccc3)CC2)c2c3nc(-c4cnc5ccccc5c4)ccc3ncc21` stay below 2 nM?
Ans. label 0

Qu. Does the reported Ki of `Cc1ccc(-c2ccc3ncc4c(c3n2)n(C2CCN(C(N)=O)CC2)c(=O)n4C)cn1` stay below 2 nM?
Ans. label 1

Qu. Does the reported Ki of `CN[C@H]1CC[C@H](n2c(=O)n(C)c3cnc4ccc(-c5cnc6ccccc6c5)nc4c32)CC1` stay below 2 nM?
Ans. label 0

Qu. Does the reported Ki of `CC(=O)N1CCC(n2c(=O)n(C)c3cnc4ccc(-c5cnc6ccccc6c5)nc4c32)CC1` stay below 2 nM?
Ans. label 0

Qu. Does the reported Ki of `CN(C)c1ccc(-c2ccc3ncc4c(c3n2)n([C@H]2CC[C@H](O)CC2)c(=O)n4C)cn1` stay below 2 nM?
Ans. label 1

###

Task for the reader: assign each of the following compounds its reported Ki.
Returns: string containing the number followed by the unit.

Qu. Observed Ki on mTOR (Homo sapiens (Human), UniProt P42345) for `CN(C)CC(=O)N1CCC(n2c(=O)n(C)c3cnc4ccc(-c5ccc(N(C)C)nc5)nc4c32)CC1` , please.
Sequence (P42345 2156-2469): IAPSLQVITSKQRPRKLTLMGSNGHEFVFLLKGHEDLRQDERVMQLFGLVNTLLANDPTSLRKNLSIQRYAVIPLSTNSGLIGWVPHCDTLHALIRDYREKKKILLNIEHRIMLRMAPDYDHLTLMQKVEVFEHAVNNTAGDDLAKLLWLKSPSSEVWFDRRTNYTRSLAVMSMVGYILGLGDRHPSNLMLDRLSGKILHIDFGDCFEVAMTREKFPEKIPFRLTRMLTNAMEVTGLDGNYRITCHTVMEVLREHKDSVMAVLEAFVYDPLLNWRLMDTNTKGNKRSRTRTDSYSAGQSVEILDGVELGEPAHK
Ans. 7.99 nM

Qu. Observed Ki on mTOR (Homo sapiens (Human), UniProt P42345) for `Cn1c(=O)n(C2CCN(C(=O)C(C)(C)N)CC2)c2c3nc(-c4cnc5ccccc5c4)ccc3ncc21` , please.
Ans. 13.3 nM

Qu. Observed Ki on mTOR (Homo sapiens (Human), UniProt P42345) for `N[C@H]1CC[C@H](n2c(=O)[nH]c3cnc4ccc(-c5cnc6ccccc6c5)nc4c32)CC1` , please.
Ans. 3.33 nM

Qu. Observed Ki on mTOR (Homo sapiens (Human), UniProt P42345) for `Cn1c(=O)n(C2CCN(C(=O)C(C)(C)O)CC2)c2c3nc(-c4cnc5[nH]ncc5c4)ccc3ncc21` , please.
Ans. 0.658 nM

Qu. Observed Ki on mTOR (Homo sapiens (Human), UniProt P42345) for `COc1ncc(-c2ccc3ncc4c(c3n2)n(C2CCN(C)CC2)c(=O)n4C)cn1` , please.
Ans. 4.51 nM

Qu. Observed Ki on mTOR (Homo sapiens (Human), UniProt P42345) for `CN1CCC(n2c(=O)n(C)c3cnc4ccc(-c5ccc(N(C)C)nc5)nc4c32)CC1` , please.
Ans. 9.62 nM

Qu. Observed Ki on mTOR (Homo sapiens (Human), UniProt P42345) for `COc1ncc(-c2ccc3ncc4c(c3n2)n(C2CCN(C(=O)CN)CC2)c(=O)n4C)cn1` , please.
Ans. 13.3 nM

Qu. Observed Ki on mTOR (Homo sapiens (Human), UniProt P42345) for `C[C@H](CO)n1c(=O)n(C)c2cnc3ccc(-c4cnn(C)c4)nc3c21` , please.
Ans. 521 nM

Qu. Observed Ki on mTOR (Homo sapiens (Human), UniProt P42345) for `COc1ccc(-c2ccc3ncc4c(c3n2)n(C2CCN(C(=O)CN(C)C)CC2)c(=O)n4C)cn1` , please.
Ans. 10.6 nM

Qu. Observed Ki on mTOR (Homo sapiens (Human), UniProt P42345) for `O=c1[nH]c2cnc3ccc(-c4cnc5ccccc5c4)nc3c2n1C1CCNCC1` , please.
Ans. 12.4 nM

Qu. Observed Ki on mTOR (Homo sapiens (Human), UniProt P42345) for `COc1ccc(-c2ccc3ncc4c(c3n2)n(C2CCN(C(C)C)CC2)c(=O)n4C)cn1` , please.
Ans. 17.8 nM

Qu. Observed Ki on mTOR (Homo sapiens (Human), UniProt P42345) for `CNC(=O)N1CCC(n2c(=O)n(C)c3cnc4ccc(-c5ccc(OC)nc5)nc4c32)CC1` , please.
Ans. 1.6 nM

Qu. Observed Ki on mTOR (Homo sapiens (Human), UniProt P42345) for `C[C@@H](O)C(=O)N1CCC(n2c(=O)n(C)c3cnc4ccc(-c5cnc6[nH]ncc6c5)nc4c32)CC1` , please.
Ans. 0.241 nM

Qu. Observed Ki on mTOR (Homo sapiens (Human), UniProt P42345) for `CNC(=O)Nc1ccc(-c2ccc3ncc4c(c3n2)n(C2CCN(C(=O)CO)CC2)c(=O)n4C)cc1` , please.
Ans. 2.03 nM

Qu. Observed Ki on mTOR (Homo sapiens (Human), UniProt P42345) for `COc1ccc(-c2ccc3ncc4[nH]c(=O)n(-c5ccc(C(C)(C)C#N)cc5)c4c3n2)cn1` , please.
Ans. 2.09 nM

Qu. Observed Ki on mTOR (Homo sapiens (Human), UniProt P42345) for `COc1ncc(-c2ccc3ncc4c(c3n2)n(C2CCNCC2)c(=O)n4C)cn1` , please.
Ans. 50.4 nM

###

target: UniProtKB P42345; test: biochemical
MEASURED QUANTITY: pKi
Kindly note that pKi refers to -log10 of the concentration in mol/L and answer with the value alone.

Qu. Requested field: pKi. Item: `Cn1c(=O)n(C2CCNCC2)c2c3nc(-c4cnc5ccccc5c4)ccc3ncc21`
Ans. 7.88

Qu. Requested field: pKi. Item: `O=C(OCc1ccccc1)N1CCC(n2c(=O)[nH]c3cnc4ccc(-c5cnc6ccccc6c5)nc4c32)CC1`
Ans. 7.67

Qu. Requested field: pKi. Item: `Cn1c(=O)n([C@H]2CC[C@H](N)CC2)c2c3nc(-c4cnc5ccccc5c4)ccc3ncc21`
Ans. 8.10

Qu. Requested field: pKi. Item: `CN(C)C(=O)CN1CCC(n2c(=O)n(C)c3cnc4ccc(-c5cnn(C)c5)nc4c32)CC1`
Ans. 7.55

###

target: PI3-Kα (Mus musculus (Mouse), UniProt P42337); assay: PI3-Kα biochemical assay (in vitro kinase assay, fluorescence polarization); conditions: Ki calculated from IC50, [ATP]=30 uM, Km=25 uM;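 further: Insect-cell-expressed mouse p110/p85 complex converting PI(4,5)P2, product PI(3,4,5)P3 detected by displacing TAMRA-tagged PI(3,4,5)P3 from Grip1 PH domain, lower polarization means more product, room temperature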
Sequence (P42337 whole entry, the tested form may be a part): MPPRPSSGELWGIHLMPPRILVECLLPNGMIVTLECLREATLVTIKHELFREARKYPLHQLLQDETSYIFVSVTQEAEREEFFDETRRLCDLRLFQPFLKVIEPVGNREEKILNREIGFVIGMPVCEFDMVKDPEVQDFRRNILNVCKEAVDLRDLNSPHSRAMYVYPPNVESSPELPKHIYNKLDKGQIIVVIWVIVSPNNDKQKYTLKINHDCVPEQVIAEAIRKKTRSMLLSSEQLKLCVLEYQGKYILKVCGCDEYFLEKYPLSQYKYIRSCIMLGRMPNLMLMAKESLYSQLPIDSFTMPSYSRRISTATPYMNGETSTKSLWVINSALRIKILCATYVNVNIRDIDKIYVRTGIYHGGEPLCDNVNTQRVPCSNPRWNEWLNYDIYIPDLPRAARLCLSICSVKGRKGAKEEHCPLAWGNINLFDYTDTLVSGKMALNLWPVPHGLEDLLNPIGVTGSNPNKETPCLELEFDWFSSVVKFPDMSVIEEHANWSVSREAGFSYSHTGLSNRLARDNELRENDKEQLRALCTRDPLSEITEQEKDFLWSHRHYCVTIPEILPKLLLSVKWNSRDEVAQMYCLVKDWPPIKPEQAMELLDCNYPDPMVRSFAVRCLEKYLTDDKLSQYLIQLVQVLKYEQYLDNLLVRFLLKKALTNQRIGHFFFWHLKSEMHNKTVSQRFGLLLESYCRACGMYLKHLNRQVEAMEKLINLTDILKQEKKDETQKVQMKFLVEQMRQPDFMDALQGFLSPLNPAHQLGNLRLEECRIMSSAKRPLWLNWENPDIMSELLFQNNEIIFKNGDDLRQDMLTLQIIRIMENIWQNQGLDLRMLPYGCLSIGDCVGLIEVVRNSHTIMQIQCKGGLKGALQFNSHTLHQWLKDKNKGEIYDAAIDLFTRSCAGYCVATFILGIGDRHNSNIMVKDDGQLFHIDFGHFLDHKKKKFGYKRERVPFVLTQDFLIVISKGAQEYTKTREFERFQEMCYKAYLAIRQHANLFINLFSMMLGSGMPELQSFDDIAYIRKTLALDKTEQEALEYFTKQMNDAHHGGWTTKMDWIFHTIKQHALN
Sequence (P26450 whole entry partner, the tested form may be a part): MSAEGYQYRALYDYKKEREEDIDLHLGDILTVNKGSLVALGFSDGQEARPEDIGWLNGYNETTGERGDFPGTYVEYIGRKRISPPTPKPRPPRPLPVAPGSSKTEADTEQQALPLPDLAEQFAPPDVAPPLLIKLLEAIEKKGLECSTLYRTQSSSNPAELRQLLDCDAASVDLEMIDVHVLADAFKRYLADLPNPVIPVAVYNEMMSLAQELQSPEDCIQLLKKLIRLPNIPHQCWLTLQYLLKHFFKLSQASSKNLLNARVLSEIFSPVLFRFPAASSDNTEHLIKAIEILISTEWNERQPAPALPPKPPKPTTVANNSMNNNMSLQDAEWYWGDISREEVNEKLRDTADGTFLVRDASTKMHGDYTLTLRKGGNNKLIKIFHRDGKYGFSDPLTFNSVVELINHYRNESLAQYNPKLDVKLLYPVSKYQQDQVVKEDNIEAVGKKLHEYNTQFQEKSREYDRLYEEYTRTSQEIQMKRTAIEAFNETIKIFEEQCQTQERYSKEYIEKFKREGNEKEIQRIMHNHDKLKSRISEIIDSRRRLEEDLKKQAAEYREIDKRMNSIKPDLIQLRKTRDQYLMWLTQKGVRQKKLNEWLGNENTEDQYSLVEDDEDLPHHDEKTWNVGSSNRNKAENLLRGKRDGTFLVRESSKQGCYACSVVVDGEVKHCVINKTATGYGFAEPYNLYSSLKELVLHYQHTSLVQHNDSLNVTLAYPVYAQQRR
Task for the reader: assign each of the following molecules its reported PI3Ka Ki.
Output spec: scalar in nM, unitless text.

Qu. Observed PI3Ka Ki on PI3-Kα (Mus musculus (Mouse), UniProt P42337) for `Cc1ccc(-c2ccc3ncc4c(c3n2)n(C2CCN(C(=O)CN)CC2)c(=O)n4C)cn1` , please.
Ans. 0.32

Qu. Observed PI3Ka Ki on PI3-Kα (Mus musculus (Mouse), UniProt P42337) for `Cc1ccc(-c2ccc3ncc4c(c3n2)n(C2CCN(C)CC2)c(=O)n4C)cn1` , please.
Ans. 4.26

Qu. Observed PI3Ka Ki on PI3-Kα (Mus musculus (Mouse), UniProt P42337) for `CCN1CCC(n2c(=O)n(C)c3cnc4ccc(-c5cnc6ccccc6c5)nc4c32)CC1` , please.
Ans. 3.19

Qu. Observed PI3Ka Ki on PI3-Kα (Mus musculus (Mouse), UniProt P42337) for `CN(C)c1ccc(-c2ccc3ncc4[nH]c(=O)n(-c5ccc(C(C)(C)C#N)cc5)c4c3n2)cn1` , please.
Ans. 3.85

Qu. Observed PI3Ka Ki on PI3-Kα (Mus musculus (Mouse), UniProt P42337) for `Cn1cc(-c2ccc3ncc4[nH]c(=O)n(-c5ccc(C(C)(C)C#N)cc5)c4c3n2)cn1` , please.
Ans. 59.2

Qu. Observed PI3Ka Ki on PI3-Kα (Mus musculus (Mouse), UniProt P42337) for `Cn1c(=O)n([C@H]2CC[C@H](O)CC2)c2c3nc(-c4cc[nH]n4)ccc3ncc21` , please.
Ans. 23.3

Qu. Observed PI3Ka Ki on PI3-Kα (Mus musculus (Mouse), UniProt P42337) for `Cc1ccc(-c2ccc3ncc4c(c3n2)n(-c2ccc(C(C)(C)C#N)cc2)c(=O)n4C)cn1` , please.
Ans. 34.8

Qu. Observed PI3Ka Ki on PI3-Kα (Mus musculus (Mouse), UniProt P42337) for `Cn1cc(-c2ccc3ncc4c(c3n2)n([C@H]2CC[C@H](O)CC2)c(=O)n4C)cn1` , please.
Ans. 7.44

Qu. Observed PI3Ka Ki on PI3-Kα (Mus musculus (Mouse), UniProt P42337) for `Cn1c(=O)n(C2CCN(C(=O)C(C)(C)O)CC2)c2c3nc(-c4cnc5[nH]ncc5c4)ccc3ncc21` , please.
Ans. 0.114

Qu. Observed PI3Ka Ki on PI3-Kα (Mus musculus (Mouse), UniProt P42337) for `COc1cccc(-c2ccc3ncc4c(c3n2)n(C2CCN(C(C)=O)CC2)c(=O)n4C)c1` , please.
Ans. 3.04

Qu. Observed PI3Ka Ki on PI3-Kα (Mus musculus (Mouse), UniProt P42337) for `CNC(=O)Nc1ccc(-c2ccc3ncc4c(c3n2)n(C2CCN(C(=O)CO)CC2)c(=O)n4C)cc1` , please.
Ans. 2.19

Qu. Observed PI3Ka Ki on PI3-Kα (Mus musculus (Mouse), UniProt P42337) for `COc1cccc(-c2ccc3ncc4c(c3n2)n(C2CCN(C(=O)[C@H](C)O)CC2)c(=O)n4C)c1` , please.
Ans. 2.01

Qu. Observed PI3Ka Ki on PI3-Kα (Mus musculus (Mouse), UniProt P42337) for `COc1ncc(-c2ccc3ncc4c(c3n2)n(C2CCN(CC(=O)N(C)C)CC2)c(=O)n4C)cn1` , please.
Ans. 4.7

Qu. Observed PI3Ka Ki on PI3-Kα (Mus musculus (Mouse), UniProt P42337) for `COc1ccc(-c2ccc3ncc4[nH]c(=O)n([C@H]5CC[C@H](O)CC5)c4c3n2)cn1` , please.
Ans. 0.51

Qu. Observed PI3Ka Ki on PI3-Kα (Mus musculus (Mouse), UniProt P42337) for `CN1CCC(n2c(=O)n(C)c3cnc4ccc(-c5cnc6ccccc6c5)nc4c32)CC1` , please.
Ans. 5.92

Qu. Observed PI3Ka Ki on PI3-Kα (Mus musculus (Mouse), UniProt P42337) for `Cc1ccc(-c2ccc3ncc4c(c3n2)n([C@H](C)CO)c(=O)n4C)cn1` , please.
Ans. 13.4
